// values below are reported pIC50
Test system: CEM-SS
Test: Cytotoxicity against human CEM-SS cells assessed as growth inhibition after 6 days by XTT assay
Format: cell-based
Settings: 144 h
pIC50: −log10 of the molar value.
observed_property: pIC50

{"molecule": "CCCCC[C@@]1(O)C(C)=C(C)C(=O)[C@H]1COCC (relative stereo)", "recorded_number": 4.18}
{"molecule": "CCCCC[C@@]1(O)C(C)=C(C)C(=O)[C@H]1CO (relative stereo)", "recorded_number": 4.10}
{"molecule": "C=C1C(=O)C(C)=C(C)[C@@]1(O)CCCCC", "recorded_number": 5.20}
